Hey, just so you know, these numbers are from PubChem BioAssay AID1918995.

Kindly supply the reported viability, T/C values for the records listed here.
Tested on: 324938-238-R-J1-PDC complex spheroid growth, % test/control;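 also: spheroids exposed to agents for seven days before viability read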
Assay: Anticancer human tumor 324938-238-R-J1-PDC patient-derived bladder carcinoma cell line growth inhibition [AhR]
Conditions: second compound 1 µM; first compound 10 µM; active compounds read low
Kindly answer with a numeric value in %, unit omitted.

viability, T/C measured on O=C(C=Cc1cccc(S(=O)(=O)Nc2ccccc2)c1)NO + Cc1cncc(-c2nc(NCCc3c[nH]c4ccccc34)c3ncn(C(C)C)c3n2)c1 = 3.32

viability, T/C for COc1ccc([C@@H](O)c2cc(-c3ncnc4cc(N5CCOCC5)ccc34)c(F)cc2Cl)nn1 + Cc1cncc(-c2nc(NCCc3c[nH]c4ccccc34)c3ncn(C(C)C)c3n2)c1 is 64.2

Lab note: CC1COCCN1c1cc(C2(S(C)(=N)=O)CC2)nc(-c2ccnc3[nH]ccc23)n1 (centres undefined) + CC(CO)NC(=O)c1cc(-c2ccc(Cl)cc2)nn(-c2cnn(C)c2)c1=O gave viability, T/C of 22.5

Nc1ccn(C2OC(CO)C(O)C2(F)F)c(=O)n1 (centres undefined) + Cc1ccccc1N=Nc1ccc(NC(=O)c2ccnn2C)c(C)c1 has a reported viability, T/C of 7.14

Kindly note the recorded viability, T/C for COc1ccc([C@@H](O)c2cc(-c3ncnc4cc(N5CCOCC5)ccc34)c(F)cc2Cl)nn1 + Cc1ccccc1N=Nc1ccc(NC(=O)c2ccnn2C)c(C)c1 , which is 55.4

COc1cccc2c1C(=O)c1c(O)c3c(c(O)c1C2=O)CC(O)(C(=O)CO)CC3OC1CC(N)C(O)C(C)O1 (centres undefined) + Cc1cncc(-c2nc(NCCc3c[nH]c4ccccc34)c3ncn(C(C)C)c3n2)c1 yielded viability, T/C of 0.47

Please fill in: viability, T/C reported for Nc1ccccc1NC(=O)c1ccc(CNC(=O)OCc2cccnc2)cc1 + Cc1ccccc1N=Nc1ccc(NC(=O)c2ccnn2C)c(C)c1 = 38

// viability, T/C value for COc1cc(C2c3cc4c(cc3C(OC3OC5COC(C)OC5C(O)C3O)C3COC(=O)C23)OCO4)cc(OC)c1O (centres undefined) + CC(CO)NC(=O)c1cc(-c2ccc(Cl)cc2)nn(-c2cnn(C)c2)c1=O : 21.7

# viability, T/C of NS(=O)(=O)OCC1CC(n2ccc3c(NC4CCc5ccccc54)ncnc32)CC1O (centres undefined) + CC(CO)NC(=O)c1cc(-c2ccc(Cl)cc2)nn(-c2cnn(C)c2)c1=O = 29.1

Lookup result for CC(C)c1c(-c2ccccc2)nc2c(C#N)c[nH]n2c1=O + Cc1ccccc1N=Nc1ccc(NC(=O)c2ccnn2C)c(C)c1 ; measured viability, T/C: 65.8

Looking up O=C(c1cc(Cc2n[nH]c(=O)c3ccccc23)ccc1F)N1CCN(C(=O)C2CC2)CC1 + Cc1ccccc1N=Nc1ccc(NC(=O)c2ccnn2C)c(C)c1 , I found its viability, T/C recorded as 72.3

viability, T/C for CC1(C)CCC(CN2CCN(c3ccc(C(=O)NS(=O)(=O)c4ccc(NCC5CCOCC5)c([N+](=O)[O-])c4)c(Oc4cnc5[nH]ccc5c4)c3)CC2)=C(c2ccc(Cl)cc2)C1 + CC(CO)NC(=O)c1cc(-c2ccc(Cl)cc2)nn(-c2cnn(C)c2)c1=O is 62

Noted for COc1cc(C2c3cc4c(cc3C(OC3OC5COC(C)OC5C(O)C3O)C3COC(=O)C23)OCO4)cc(OC)c1O (centres undefined) + Cc1cncc(-c2nc(NCCc3c[nH]c4ccccc34)c3ncn(C(C)C)c3n2)c1 : its viability, T/C reads 106

Note to self: viability, T/C recorded for Nc1ccccc1NC(=O)c1ccc(CNC(=O)OCc2cccnc2)cc1 + Cc1cncc(-c2nc(NCCc3c[nH]c4ccccc34)c3ncn(C(C)C)c3n2)c1 was 3.52

// recorded viability, T/C for COc1ccc([C@@H](O)c2cc(-c3ncnc4cc(N5CCOCC5)ccc34)c(F)cc2Cl)nn1 + CC(CO)NC(=O)c1cc(-c2ccc(Cl)cc2)nn(-c2cnn(C)c2)c1=O : 60.1

So for O=C(c1cc(Cc2n[nH]c(=O)c3ccccc23)ccc1F)N1CCN(C(=O)C2CC2)CC1 + CC(CO)NC(=O)c1cc(-c2ccc(Cl)cc2)nn(-c2cnn(C)c2)c1=O , the logged viability, T/C turned out to be 54

Query COc1cccc2c1C(=O)c1c(O)c3c(c(O)c1C2=O)CC(O)(C(=O)CO)CC3OC1CC(N)C(O)C(C)O1 (centres undefined) + CC(CO)NC(=O)c1cc(-c2ccc(Cl)cc2)nn(-c2cnn(C)c2)c1=O yields viability, T/C of 0.19

Note to self: viability, T/C recorded for CC(C)c1c(-c2ccccc2)nc2c(C#N)c[nH]n2c1=O + CC(CO)NC(=O)c1cc(-c2ccc(Cl)cc2)nn(-c2cnn(C)c2)c1=O was 75.8

Summary for this compound, CC1COCCN1c1cc(C2(S(C)(=N)=O)CC2)nc(-c2ccnc3[nH]ccc23)n1 (centres undefined) + Cc1cncc(-c2nc(NCCc3c[nH]c4ccccc34)c3ncn(C(C)C)c3n2)c1 : viability, T/C is 73.5

The compound listed as Nc1ccn(C2OC(CO)C(O)C2(F)F)c(=O)n1 (centres undefined) + Cc1cncc(-c2nc(NCCc3c[nH]c4ccccc34)c3ncn(C(C)C)c3n2)c1 shows viability, T/C equal to 84.5

Record COc1cccc2c1C(=O)c1c(O)c3c(c(O)c1C2=O)CC(O)(C(=O)CO)CC3OC1CC(N)C(O)C(C)O1 (centres undefined) + Cc1ccccc1N=Nc1ccc(NC(=O)c2ccnn2C)c(C)c1 . Reported viability, T/C: 0.12

Input O=C(c1cc(Cc2n[nH]c(=O)c3ccccc23)ccc1F)N1CCN(C(=O)C2CC2)CC1 + Cc1cncc(-c2nc(NCCc3c[nH]c4ccccc34)c3ncn(C(C)C)c3n2)c1 . Output viability, T/C: 59.6

Sample COc1cc(C2c3cc4c(cc3C(OC3OC5COC(C)OC5C(O)C3O)C3COC(=O)C23)OCO4)cc(OC)c1O (centres undefined) + Cc1ccccc1N=Nc1ccc(NC(=O)c2ccnn2C)c(C)c1 ; viability, T/C observed: 16.4

So, COc1cc(Nc2ncc3c(n2)-c2ccc(Cl)cc2C(c2c(F)cccc2OC)=NC3)ccc1C(=O)O + Cc1cncc(-c2nc(NCCc3c[nH]c4ccccc34)c3ncn(C(C)C)c3n2)c1 ? Its viability, T/C was 80.4
